All figures here come from the NIST ThermoML archive (doi:10.1016/j.fluid.2018.11.011).

Assay: activity coefficient (dimensionless); of the first substance listed, at infinite dilution; xn = mol fraction of the nth substance listed
Details: 323 K; 101.33 kPa; Liquid; Chromatography; x1 = 0
Measure Name: activity coefficient

INSERT INTO assay_data (compound, measured) VALUES
  ('C/C=C(\C)CC [(E)-3-methyl-2-pentene] + CCCCCCCCCC[N+](C)(C)CCCCCCCCCC.F[B-](F)(F)F', 1.71),
  ('C/C=C/C(C)C [(E)-4-methyl-2-pentene] + CCCCCCCCCC[N+](C)(C)CCCCCCCCCC.[O-][Cl+3]([O-])([O-])[O-]', 1.68),
  ('C=CCCCCCC [oct-1-ene] + CCCCCCCCCC[N+](C)(C)CCCCCCCCCC.[O-][Cl+3]([O-])([O-])[O-]', 0.999),
  ('C=CCCC [1-pentene] + CCCCCCCCCC[N+](C)(C)CCCCCCCCCC.[O-][Cl+3]([O-])([O-])[O-]', 1.56);
